# Species on record: Rattus norvegicus
# assay: DrugMatrix - Regimen: Daily Repeat
# Assay type: toxicity, organism-based, Sprague-Dawley
# Parameters: regimen Daily Repeat, gender Male, age 6-8 weeks
# applied conditions: in vivo, po, 0 mg/kg, 72 h, tissue Blood, route oral GAVAGE, dose level Control, time 3 day, […]
assay metric: HEMOGLOBIN (G/DL)

- compound: "c1ccc2c(c1)Nc1ccccc1S2 [PHENOTHIAZINE]"
  readout unit: "G/DL"
  val: 12.98
- compound: "Cc1cccc(C)c1NC(=O)C(C)N (stereo not given) [TOCAINIDE]"
  readout unit: "G/DL"
  val: 13.42
- compound: "Oc1ncnc2[nH]ncc12 [ALLOPURINOL]"
  readout unit: "G/DL"
  val: 13.4
- compound: "O=C(Nc1ccc(Cl)c(Cl)c1)c1cc(Cl)cc(Cl)c1O [3,3',4',5-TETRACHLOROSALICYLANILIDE]"
  readout unit: "G/DL"
  val: 14.03
- compound: "COc1ccccc1OCCNCC(O)COc1cccc2[nH]c3ccccc3c12 (stereo not given) [CARVEDILOL]"
  readout unit: "G/DL"
  val: 13.27

Every entry's value here was drawn from ChEMBL document CHEMBL3885881.
